src = PubChem BioAssay AID1508611

# system-tested: Glucose-dependent insulinotropic receptor (Homo sapiens)
# protocol-summary: off-target GPR119 activation – cell-based, PathHunter beta-arrestin, luminescence, triplicate, counter-screen for GPR151 activator project (AID 1508611);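 further: counterscreen on off-target GPR119 to flag nonselective hits from the GPR151 activator screen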
# condition-details: GPR119 PathHunter beta-arrestin cells, 90 min, at 11.2 µM, active compounds read high, 0 = compound-well median, 100 = enzyme-acceptor control
About 20 (0.3%) of roughly 6,700 compounds were called active. Many of the other results were omitted from the sample, so actives are more common in it than they were.
Quick reference for activation among some compounds
Could you give me the number in %? Just the number is fine.

Some solved entries appear below for comparison.
compound | system-tested | activation, %
COc1ccc(/C=C(\C#N)C(=O)Nc2cccc(S(=O)(=O)N3CCCCC3)c2)cc1 | Glucose-dependent insulinotropic receptor (Homo sapiens) | -10.3
O=C(CN1C(=O)S/C(=C\c2ccc(Cl)s2)C1=O)Nc1ccccc1F | Glucose-dependent insulinotropic receptor (Homo sapiens) | -11
COc1cccc(-c2nnc(NC(=O)CSc3ccccc3)o2)c1 | Glucose-dependent insulinotropic receptor (Homo sapiens) | 6.53

Recorded result, CN1C(=O)c2ccc(N3C(=O)c4cccc([N+](=O)[O-])c4C3=O)cc2C1=O , activation: -8.76

Recorded result, CCSc1nc2sccn2c(=O)c1C(=O)NC(Cc1ccccn1)C(F)(F)F (stereo unspecified) , activation: -3.52

Recorded result, CCc1ccc(-n2c(C)c(C)n3c4c(=O)n(CC)c(=O)n(C)c4nc23)cc1 , activation: -2.08

Recorded result, CCOc1ccc(C(=O)Nc2nnc(CC)s2)cc1[N+](=O)[O-] , activation: -8.62

Recorded result, COc1ccc(OC)c(NC(=S)Nc2ccccn2)c1 , activation: -19.3

Recorded result, O=C(NCCOc1ccccc1)c1cnc(N2CCN(c3ccccn3)CC2)s1 , activation: 1.31

Recorded result, Cc1cc(Nc2ccc(F)cc2)n2cnnc2n1 , activation: -9.37

Recorded result, CC(=O)c1cccc(-c2nc(Nc3ccc(Oc4ccccc4)cc3)c3ncn(-c4ccsc4)c3n2)c1 , activation: 1.29

Recorded result, CCc1nnc2n1N(C(C)=O)C(c1ccc3c(c1)CCCC3)=C(C(C)=O)S2 , activation: 3.36

Recorded result, COc1cc([N+](=O)[O-])ccc1NC(=S)NCc1cc(C)n(C)n1 , activation: -4.23

Recorded result, O=C(Cn1c(=S)nc2ccccn21)N1CCc2ccccc2C1 , activation: 4.38

Recorded result, Cc1cc(CN(C)Cc2ccc(OCC(O)CN(C)Cc3ccccc3)cc2)n[nH]1 (stereo unspecified) , activation: -0.59

Recorded result, N#Cc1ccc(N2CCN(CCCNC(=O)Nc3ccccc3)CC2)cc1 , activation: -8.24

Recorded result, O=C(COc1ccc(S(=O)(=O)NCCc2ccccc2)cc1)NC1CC1 , activation: -10.3

Recorded result, COC(=O)[C@@H]1CC[C@H](C)[C@@H](c2ccc(C)cc2)N1C(=O)c1ccc(/C=N/O[C@H](C)c2cn([C@@H]3COC[C@H]3O)nn2)cc1 , activation: -5.11

----------
# system-tested: Glucose-dependent insulinotropic receptor (Homo sapiens) (UniProt Q8TDV5)
# Sequence (Q8TDV5 whole entry, looked up): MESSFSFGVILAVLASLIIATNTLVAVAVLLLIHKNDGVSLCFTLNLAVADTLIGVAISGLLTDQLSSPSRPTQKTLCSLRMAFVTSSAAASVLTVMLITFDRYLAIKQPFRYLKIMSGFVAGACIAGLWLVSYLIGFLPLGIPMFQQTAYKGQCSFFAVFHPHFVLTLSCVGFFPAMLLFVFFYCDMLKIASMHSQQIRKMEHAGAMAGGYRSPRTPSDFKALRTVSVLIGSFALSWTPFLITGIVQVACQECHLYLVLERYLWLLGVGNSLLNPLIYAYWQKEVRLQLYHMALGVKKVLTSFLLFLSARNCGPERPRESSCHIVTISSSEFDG
# protocol-summary: off-target GPR119 activation – cell-based, PathHunter beta-arrestin, luminescence, triplicate, counter-screen for GPR151 activator project (AID 1508611);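 further: counterscreen on off-target GPR119 to flag nonselective hits from the GPR151 activator screen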
# condition-details: GPR119 PathHunter beta-arrestin cells, 90 min, at 11.2 µM, active compounds read high, 0 = compound-well median, 100 = enzyme-acceptor control
About 20 (0.3%) of roughly 6,700 compounds were called active. For the sample, actives were picked, then their nearest neighbours and some compounds at random.
reported-metric: activation (%)
Could you give me the number in %? Just the number is fine.

Some solved entries appear below for comparison.
compound | unit-abbrev | activation
C#CCOc1ccc(Br)cc1/C=C1\NC(=S)N(C)C1=O | % | -3.86
COc1ccc(NC(=S)N2CCN(S(=O)(=O)c3ccc(F)cc3)CC2)c(OC)c1 | % | -3.67

Recorded result, CCOc1ccccc1-c1cc(C(=O)N2CCOCC2)c2ccccc2n1 , activation: -4.4
